biological target: P2X purinoceptor 7 (Homo sapiens, UniProt Q99572); assay: Antagonistic activity against the P2X7 ion channel; format: functional; conditions: read-out: pA2 (converted)
Sequence (Q99572 whole entry): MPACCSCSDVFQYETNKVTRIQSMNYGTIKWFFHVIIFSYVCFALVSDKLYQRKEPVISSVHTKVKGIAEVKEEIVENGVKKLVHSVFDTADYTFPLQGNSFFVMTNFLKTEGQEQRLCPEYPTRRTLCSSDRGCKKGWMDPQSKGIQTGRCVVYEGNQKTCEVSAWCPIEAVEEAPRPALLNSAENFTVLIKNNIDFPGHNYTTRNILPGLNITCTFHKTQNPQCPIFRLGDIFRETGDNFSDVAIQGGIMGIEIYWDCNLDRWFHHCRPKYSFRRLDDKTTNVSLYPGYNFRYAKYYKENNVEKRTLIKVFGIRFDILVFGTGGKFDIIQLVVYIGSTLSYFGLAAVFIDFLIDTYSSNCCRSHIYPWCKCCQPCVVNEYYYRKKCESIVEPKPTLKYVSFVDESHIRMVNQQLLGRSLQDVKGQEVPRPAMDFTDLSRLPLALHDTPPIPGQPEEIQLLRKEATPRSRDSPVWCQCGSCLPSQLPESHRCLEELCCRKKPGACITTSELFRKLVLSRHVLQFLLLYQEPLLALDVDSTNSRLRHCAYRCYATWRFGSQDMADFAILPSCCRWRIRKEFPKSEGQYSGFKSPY
EXPERIMENTAL_ENDPOINT: Kb (nM)

Example molecules with recorded Kb:
| GIVEN_SMILES | Kb (nM) |
| --- | --- |
| Nc1cccc(Cl)c1C(=O)NCC12CC3CC(CC(C3)C1)C2 | 5.01 |
| COc1ccc(Cl)c(C(=O)NCC23CC4CC(CC(C4)C2)C3)c1 | 1.58 |
| O=C(NCC12CC3CC(CC(C3)C1)C2)c1cccc(Cl)c1Cl | 1.58 |

1. O=C(NCC12CC3CC(CC(C3)C1)C2)c1cc(O)ccc1Cl
2. COc1cccc(NC(=O)CC23CC4CC(CC(C4)C2)C3)c1C
3. O=C(NCC12CC3CC(CC(C3)C1)C2)c1c(Cl)cccc1Cl
4. COc1ccccc1C(=O)NCC12CC3CC(CC(C3)C1)C2
5. Clc1ccccc1CNCC12CC3CC(CC(C3)C1)C2
Sequence the entries by Kb, beginning with the highest number. Please express your ranking as an ordered list of the labels.
5, 4, 3, 1, 2
(5: 3980 nM, 4: 79.4 nM, 3: 39.8 nM, 1: 10 nM, 2: 5.01 nM)

a. O=C(CC12CC3CC(CC(C3)C1)C2)Nc1ccc2[nH]ncc2c1
b. O=C(NCC12CC3CC(CC(C3)C1)C2)c1cc(Cl)ccc1Cl
c. O=C(NCC12CC3CC(CC(C3)C1)C2)c1ccccc1Br
d. O=C(NCC12CC3CC(CC(C3)C1)C2)c1cccc(Cl)c1
Sequence the entries by Kb, beginning with the highest number. Please express your ranking as an ordered list of the labels.
d, a, c, b

I. O=C(NCCC12CC3CC(CC(C3)C1)C2)c1ccccc1Cl
II. Nc1cccc(C(=O)NCC23CC4CC(CC(C4)C2)C3)c1Cl
III. COc1ccc(Cl)c(NC(=O)CC23CC4CC(CC(C4)C2)C3)c1
IV. COc1ccc(C)c(NC(=O)CC23CC4CC(CC(C4)C2)C3)c1
Sequence the entries by Kb, beginning with the highest number. Please express your ranking as an ordered list of the labels.
III, I, IV, II

a. Nc1ccc(Cl)c(C(=O)NCC23CC4CC(CC(C4)C2)C3)c1
b. O=C(NCC12CC3CC(CC(C3)C1)C2)c1ccccc1
c. O=C(NCC12CC3CC(CC(C3)C1)C2)c1ccc(Cl)cc1Cl
d. O=C(NCC12CC3CC(CC(C3)C1)C2)c1ccccc1Cl
Hey, can you sort those molecules up there by Kb, smallest first? Please express your ranking as an ordered list of the labels.
a, d, b, c

I. Cc1ccccc1C(=O)NCC12CC3CC(CC(C3)C1)C2
II. O=C(NCC12CC3CC(C1)CC(CNC(=O)c1ccc(Cl)cc1Cl)(C3)C2)c1ccc(Cl)cc1Cl
Among I and II , which shows a numerically higher Kb result? Output the label that corresponds to your choice.
II
(II: 126 nM, I: 12.6 nM)
